# Tested on: P. falciparum 3D7 parasites
# procedure_details: Effects of indole derivatives (500 nM) on parasitemia
# Format: cell-based, Plasmodium falciparum
# run_parameters: Plasmodium falciparum; 3D7, 48 h, normalized to DMSO control; read-out: Parasitemia (%) Treatment with compound (500nM)
# Experimental: To evaluate the role of the compounds in parasitemia, 1% 3D7 parasites in 2% hematocrit were incubated for 48 h with 500 nM of the 2-sulfenylindole derivatives. Melatonin (100 nM) was used as a positive control, and DMSO (0.0013% v/v) was used as a negative control. […] The activity of the compounds was measured by SG-I and MT-Red staining. […] After incubation, the final parasitemia was determined using flow cytometry.
Please provide measured activity at 0.5 µM for the entries that follow.
Answer format: numeric, % implied, no suffix.

[in] Check the records and state activity at 0.5 µM for COC(=O)Cc1c(Sc2ccccc2)[nH]c2ccccc12
[out] 98.2

[in] Please list activity at 0.5 µM recorded for the compound COC(=O)Cc1c(SCCCCCCCCCCC(=O)O)[nH]c2ccccc12
[out] 110

[in] Please report the measured activity at 0.5 µM for COC(=O)Cc1c(SCCCCO)[nH]c2ccccc12
[out] 100
